Tested on: Fibroblast
assay.remarks: Multiplex assay against human fibroblast
Assay type: toxicity, cell-based
assay.setup: 24 h, 1 µM, compound concentration 1 uM, replicate 1
Label key: fulfilled means Population Mitochondria Different-Phenotype (%) under 10%; not fulfilled means Population Mitochondria Different-Phenotype (%) of 10% or more.

Solved entries (count: 6):
c1cn2cc(-c3ccc4cn[nH]c4c3)nc(Nc3ccc(N4CCOCC4)cc3)c2n1 ... fulfilled
Cn1cc(-c2[nH]c3cc(NC(=O)[C@H](N)C4CCCCC4)cc4c3c2C=NNC4=O)cn1 ... fulfilled
CC(C)(O)CNc1ncc(-c2ccnc(Nc3ccnc(Cl)c3)n2)c(CC2CC2)n1 ... fulfilled
C[C@@H](NCCCc1cccc(C(F)(F)F)c1)c1cccc2ccccc12.Cl [CINACALCET HYDROCHLORIDE] ... not fulfilled
Cc1nc(-c2ccc(-c3ccc(C(=O)N4CCc5cc6c(cc54)C4(CCN(C)CC4)CO6)cc3)c(C)c2)no1 ... not fulfilled
COc1cccc([C@@H](C)NCCCc2ccccc2Cl)c1.Cl [TECALCET HYDROCHLORIDE] ... fulfilled

Request: I wonder whether CN(C)C(=O)N[C@H]1CC[C@H](CCN2CCN(c3cccc(Cl)c3Cl)CC2)CC1.Cl [CARIPRAZINE HYDROCHLORIDE] has Population Mitochondria Different-Phenotype (%) below 10%. Can you tell?
Response: not fulfilled
